In this section we review reported cell viability values for a set of compounds.
- Test system: SEM cells
- PROCEDURE_DETAILS: cell viability relative to DMSO control; higher = less cytotoxic
- CONDITION_NOTES: RPMI 5 mM glucose + 10% FBS; 48 h; 0.00234 µM
Use % as the unit, but write only the number.

COMPOUND	UNIT_ABBREVIATION	NUMERIC_RESULT
CC(C)C1=C(O)C=C(O)C(=C1)C/2=N/NC(=O)N2C3=CC4=C(C=C3)[N](C)C=C4	%	112
CC[C@H](C)[N]1C=C(C)C2=C1C=C(C=C2C(=O)NC\C3=C(C)\C=C(\C)NC3=O)C4=CC=C(N=C4)N5CCNCC5	%	105
C/C=C1\C2C=C(C)CC1(N)c1ccc(=O)[nH]c1C2 (centres undefined)	%	113
CN(NC(=O)CC(=O)NN(C)C(=S)c1ccccc1)C(=S)c1ccccc1	%	116
CNc1nccc(-c2cccnc2Oc2cc(C(=O)Nc3cccc(C(F)(F)F)c3)ccc2C)n1	%	92.6
Cn1cnc2c1c(=O)[nH]c(=O)n2C	%	85.2
CCC(C)(C)c1ccc(CC(C)CN2C[C@@H](C)O[C@@H](C)C2)cc1 (some centres undefined)	%	67.6
OC[C@H]1OCC(O1)[N@@]2C=CC(N)=NC2=O (some centres undefined)	%	62.4

Here's the next entry for you.
Ask: Give recorded cell viability. `CC1(C)O[C@@H]2C[C@H]3[C@@H]4CCC5=CC(=O)C=C[C@]5(C)[C@H]4[C@@H](O)C[C@]3(C)[C@]2(C(=O)CO)O1`
Reply: 39.1

----------
- System: SEM cells
- PROCEDURE_DETAILS: cell viability relative to DMSO control; higher = less cytotoxic
- CONDITION_NOTES: RPMI 5 mM glucose + 10% FBS; 48 h; 5.12 µM
OBSERVATION_TYPE: cell viability (%)
Use % as the unit, but write only the number.

Ask: Quote SEM cells cell viability for entry `CC(C)C[C@H](NC(=O)[C@H](CCc1ccccc1)NC(=O)CN1CCOCC1)C(=O)N[C@@H](Cc1ccccc1)C(=O)N[C@@H](CC(C)C)C(=O)[C@@]1(C)CO1` .
Reply: 2.81

Ask: Quote SEM cells cell viability for entry `C[C@@]12C[C@@]3(O)O[C@@H](O1)[C@]1(COC(=O)c4ccccc4)[C@H]3C[C@@]12O[C@@H]1O[C@H](CO)[C@@H](O)[C@H](O)[C@H]1O` .
Reply: 111

Ask: Quote SEM cells cell viability for entry `CC/1=C(/N2[C@H](SC1)[C@H](NC(=O)[C@H](N)\C3=C\C\C=C/C3)C2=O)C(O)=O` .
Reply: 107

----------
- System: NOMO1
- PROCEDURE_DETAILS: cell viability relative to DMSO control; higher = less cytotoxic
- CONDITION_NOTES: RPMI 5 mM glucose + 10% dialyzed FBS; 48 h; 0.569 µM
OBSERVATION_TYPE: cell viability (%)
Use % as the unit, but write only the number.

Some molecules with known cell viability results, for comparison:
COc1cc2c(cc1OC)CC(=O)N(CCCN(C)C[C@H]1Cc3cc(OC)c(OC)cc31)CC2.Cl 92.6
COc1cc(OC)c(/C=C/[S+](=O)([O-])Cc2ccc(OC)c(NCC(=O)[O][Na])c2)c(OC)c1 31.7
CC[C@H](C)[N]1C=C(C)C2=C1C=C(C=C2C(=O)NC\C3=C(C)\C=C(\C)NC3=O)C4=CC=C(N=C4)N5CCNCC5 137

Ask: Give recorded cell viability. `CC(C)C[C@H](NC(=O)[C@H](CCc1ccccc1)NC(=O)CN1CCOCC1)C(=O)N[C@@H](Cc1ccccc1)C(=O)N[C@@H](CC(C)C)C(=O)[C@@]1(C)CO1`
Reply: 5.45

Data provenance is the supplement of paper PMC11451515.
